# System: Candida albicans; also: assay method not described here
# Test Context: 32 ug/mL
# Description: Antifungal activity against Candida albicans ATCC 90028 (CO-ADD:FG_001); MIC in YNB media using NBS plates, by OD630
Measured potencies and affinities stand elsewhere.
Assay Readout: Inhibition (%)
Kindly answer with a numeric value in %, unit omitted.

Here's what some known entries look like.
[
  {
    "Molecule": "CCC(CC)NNC(=O)c1c[nH]c2ccccc12.Cl",
    "Unit Tag": "%",
    "Meas Value": 1.1
  },
  {
    "Molecule": "CCC(CC)NNC(=O)c1cc2ccccc2n1C",
    "Unit Tag": "%",
    "Meas Value": 5.89
  },
  {
    "Molecule": "C#CCN(C)Cc1cc2cc(OCCCC3CCN(Cc4ccc(OC)c5ncccc45)CC3)ccc2n1C",
    "Unit Tag": "%",
    "Meas Value": 0.97
  },
  {
    "Molecule": "COc1ccc2cc(C=O)c(Cl)nc2c1",
    "Unit Tag": "%",
    "Meas Value": 6.08
  },
  {
    "Molecule": "CCOC(=O)C1=C(C)OC(N)=C(C#N)C1c1ccc(OC)cc1 (stereo not drawn)",
    "Unit Tag": "%",
    "Meas Value": 2.59
  },
  {
    "Molecule": "COc1ccccc1C1c2ccc3ccccc3c2OC(=NBr)C1(Br)C#N (stereo not drawn)",
    "Unit Tag": "%",
    "Meas Value": 0.7
  },
  {
    "Molecule": "Cn1c(C(=O)NCc2ccccc2)cc2cc(OCCCC3CCN(Cc4ccccc4)CC3)ccc21",
    "Unit Tag": "%",
    "Meas Value": 1.62
  },
  {
    "Molecule": "COc1ccc(C2C(C#N)=C(N)Oc3ccc4ccccc4c32)cc1 (stereo not drawn)",
    "Unit Tag": "%",
    "Meas Value": 1.62
  },
  {
    "Molecule": "CCOC(=O)c1c(C)nc(/N=N/c2nc(C)c(C(=O)OCC)c(-c3ccccc3)c2C#N)c(C#N)c1-c1ccccc1",
    "Unit Tag": "%",
    "Meas Value": -1.11
  },
  {
    "Molecule": "COc1cccc(C2c3c(ccc4ccccc34)OC(=NBr)C2(Br)C#N)c1 (stereo not drawn)",
    "Unit Tag": "%",
    "Meas Value": 26.4
  }
]

Input: Tell us which Inhibition value is on record for N#CC1(Br)C(=NBr)Oc2ccc3ccccc3c2C1c1ccccc1 (stereo not drawn)
Output: 3.44

Input: Give the reported Inhibition for this molecule. NOC(=O)C1CCN(Cc2ccccc2)CC1
Output: 1.62

Input: Fill in reported Inhibition for this entry: CCOC(=O)C1=C(C)Nc2nc3c(c(N)c2C1c1ccc([N+](=O)[O-])cc1)CCCC3.Cl (stereo not drawn)
Output: 1.72

Input: Dear colleague, please send me the reported Inhibition for Cc1ccc(C2C(C#N)=C(N)Oc3c2ccc2ccccc32)cc1 (stereo not drawn) when you can.
Output: -0.54

Input: Give Inhibition for the following molecule: COc1nc2ccccc2cc1C=O
Output: 6.13

Input: Give the value of Inhibition reported for the following: N#Cc1cccnc1Cl
Output: -0.53

Input: Please supply the value of reported Inhibition for the item N#Cc1c(Cl)nc(Cl)c(C#N)c1-c1ccccc1
Output: 34.6

Input: Give me measured Inhibition, please, for this molecule: Nc1c2c(nc3nc4ccccc4nc13)CCCC2
Output: 2.21

Input: Provide only the value of recorded Inhibition for COc1ccc(-c2cc(-c3cc4c(C)cc(C)cc4nc3Cl)cc(=O)[nH]2)cc1
Output: 1.74
